B1: POU domain, class 2, transcription factor 1, residues 285 to 354; numbered along this chain, P14859 (parent)
chain: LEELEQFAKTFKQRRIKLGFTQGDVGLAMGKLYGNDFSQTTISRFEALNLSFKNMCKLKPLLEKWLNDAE

# Variants of: B1
# assay_summary: abundance fitness (aPCA) (normalised: wild type 0, dead -1); higher = more abundant; growth selection in yeast, the domain comes from the species named
# measurement_context: Homo sapiens
measurement_type: abundance fitness

Take a look at these entries with their results.
I16R -0.169
L48V -0.085
V25G -0.711
W65S -0.728

What measured abundance fitness goes with "Y33R" ?
-0.103

# iterate: "F45P"
-1.04

# iterate: "F11L"
-0.147

# iterate: "L61H"
0.016

# iterate: "G30Y"
0.002

# iterate: "G23A"
0.025

# iterate: "Q39K"
0.014

# iterate: "R15F"
-0.533

# iterate: "E46H"
-0.856

# iterate: "D24W"
-0.238

# iterate: "K53Y"
-0.122

# iterate: "D68N"
0.006

# iterate: "D68M"
-0.034

# iterate: "Q39P"
-0.011

# iterate: "Q6T"
0.025

# iterate: "S43P"
-0.03
